Each entry below carries its recorded Inhibition, 20 μg in situ.
Test system: A23187-Stimulated LTB4 in Rat Lung
Experiment: A23187-stimulated LTB4 in rat lung in situ (MDI dosing)
Conditions: 20 μg by single MDI activation into excised rat lung, A23187 challenge, LTB4 by RIA
// print number alone

CCC(CC)N(O)C(=O)Nc1cccc(Oc2ccccc2)c1 [Compound 1]
100

Q: Reported Inhibition, 20 μg in situ for CCCCCN(O)C(=O)Nc1cc(OC)c(OC)c(OC)c1 [Compound 4] : what is it?
A: 84

Q: Reported Inhibition, 20 μg in situ for CCCCCN(O)C(=O)Nc1ccc(Oc2ccccc2)cc1 [Compound 6] : what is it?
A: 88

Q: Reported Inhibition, 20 μg in situ for CC(c1cc2ccccc2s1)N(O)C(N)=O (stereo not shown) [Zileuton, zileuton, reference compound] : what is it?
A: 42

Q: Reported Inhibition, 20 μg in situ for CCC(CC)N(O)C(=O)Nc1ccccc1 [Compound 8, 1-hydroxy-1-(1-ethylpropyl)-3-phenylurea] : what is it?
A: 72

Q: Reported Inhibition, 20 μg in situ for O=C(Nc1ccccc1)N(O)CCCn1cccc1 [Compound 3] : what is it?
A: 84

Q: Reported Inhibition, 20 μg in situ for CCC(CC)N(O)C(=O)Nc1ccc(Cc2ccc(NC(=O)N(O)C(CC)CC)cc2)cc1 [Compound 5] : what is it?
A: 66
